Source: PubChem BioAssay (NCATS)

# remaining parasite growth % (stronger effect = lower value) annotations
Test: qHTS profiling for inhibitors of Plasmodium falciparum (3D7) proliferation (AID 743322);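 note: infected erythrocytes exposed to compound for 72 h before lysis; 100% = DMSO vehicle wells and 0% = 0.29 µM artemisinin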
Details: P. falciparum 3D7 proliferation; at 28.7 µM (top of the series)
Write the value in % as a bare number.

Sample records with remaining parasite growth % (stronger effect = lower value):
NC(=O)c1c(OCc2c(F)cc(Br)cc2F)nsc1NC(=O)NCCCCN1CCCC1 :: -0.239
Nc1ccccc1NC(=O)c1ccc(CNC(=O)OCc2cccnc2)cc1 :: 99.2
CC=C1NC(=O)[C@H]2CSSCCC=C[C@H](CC(=O)N[C@H](C(C)C)C(=O)N2)OC(=O)[C@H](C(C)C)NC1=O :: 95.6
Cc1cc(Nc2cc(N3CCN(C)CC3)nc(C=Cc3ccccc3)n2)n[nH]1 :: 0.147
c1cc(-c2cnn3cc(-c4ccc(OCCN5CCCCC5)cc4)cnc23)ccn1 :: 6.04

Now look at this entry.
INPUT: Given the compound CC1=C(CO)C(=O)O[C@@H]([C@@H](C)[C@H]2CC[C@H]3[C@@H]4C[C@H]5O[C@]56[C@@H](O)C=CC(=O)[C@]6(C)[C@@H]4CC[C@]23C)C1 , write its reported remaining parasite growth % (stronger effect = lower value).
OUTPUT: -1.7

* * *

Experiment: Quantitative High-Throughput drug screen in 47 multiple myeloma cell lines against the NCATS MIPE library collection: KMS28PE_JCRB cell viability assay (AID 1918983); note: potency is the fitted concentration of half-maximal effect; nearly all actives have a fitted effect of over 35% in size
Settings: KMS28PE multiple myeloma viability, CellTiter-Glo ATP, 48 h; series mostly up to 45.8 µM
Records with an inconclusive call do not appear. Activity calls are given as the source filed them. Calls come from the whole dose curve; as a rule, active = well fitted cell-killing curve with a large enough effect; inconclusive = small, poorly fitted or top-dose-only effect, or effect the other way; inactive = no such curve, though single readings can be large or run the other way.
MEASURED_METRIC: Potency

Completed entries (count: 4):
CC(=O)Nc1sc2c(c1-c1nc3ccccc3s1)CNC2 :: 20.9 µM (active)
c1cc(-c2cnn3cc(-c4ccc(OCCN5CCCCC5)cc4)cnc23)ccn1 :: 11.8 µM (active)
COC(=O)c1ccc2c(C(=Nc3ccc(N(C)C(=O)CN4CCN(C)CC4)cc3)c3ccccc3)c(O)[nH]c2c1 :: 7.43 µM (active)
Cc1c(NC(=O)OC[C@@H]2COCCN2)cn2ncnc(Nc3ccc4c(cnn4Cc4cccc(F)c4)c3)c12 :: 16.6 µM (active)

# input for lookup
INPUT: Specify reported Potency for the compound shown: NC(=O)c1c(OCc2c(F)cc(Br)cc2F)nsc1NC(=O)NCCCCN1CCCC1
OUTPUT: 18.7 µM (active)

* * *

Experiment: qHTS of pediatric cancer cell lines to identify multiple opportunities for drug repurposing: Primary screen for Rh30 cells (AID 1347107); note: nearly all actives have a fitted effect of over 75% in size; note: potency is the fitted concentration of half-maximal effect
Details: Rh30 rhabdomyosarcoma viability, CellTiter-Glo luminescence, 48 h; series mostly up to 46 µM
Results filed as inconclusive are left out. Active and inactive are the calls of the source. Calls follow the shape of the dose curve; as a rule, active = well fitted cell-killing curve with a large enough effect; inconclusive = small, poorly fitted or top-dose-only effect; inactive = no such curve, though single readings can be large or run the other way.
MEASURED_METRIC: Potency

O=C(CCCCCCNC(=O)c1cnc(N(c2ccccc2)c2ccccc2)nc1)NO :: 14.8 µM (active)
CN1CCN(c2cc(C(=O)Nc3ccc4c(c3)-c3c(c(C(N)=O)nn3-c3ccc(F)cc3)CC4)c(Cl)cn2)CC1 :: 16.6 µM (active)
CN(C)CC(C)(C)CNc1nn2c(-c3ccccc3)nnc2cc1C1CCC1 :: inactive
COC(=O)[C@]12CCC(C)(C)C[C@@H]1[C@@H]1C(=O)C=C3[C@@]4(C)C=C(C#N)C(=O)C(C)(C)[C@@H]4CC[C@@]3(C)[C@]1(C)CC2 :: 1.48 µM (active)
CC(C)c1nn(-c2c(Cl)cccc2Cl)c2nc(Cc3ccc(OCCO)cc3)[nH]c(=O)c12 :: inactive

INPUT: Provide Potency value for the following compound: CC(=O)SC[C@@H](C)C(=O)N1CCC[C@H]1C(=O)N[C@@H](Cc1ccccc1)C(=O)O
OUTPUT: inactive

INPUT: Please look at this compound and report its Potency: O=c1[nH]nc(Sc2ncc([N+](=O)[O-])s2)n1-c1ccc2c(c1)OCCO2
OUTPUT: 10.5 µM (active)

INPUT: Give the measured Potency for c1cc(-c2cnn3cc(-c4ccc(OCCN5CCCCC5)cc4)cnc23)ccn1
OUTPUT: 18.7 µM (active)
